The reported measurements were obtained from paper PMC3798429.

Collected Kd values appear next to each entry.
- MEASURED_ON: TbHsp83 NTD (Trypanosoma brucei brucei)
- Sequence (P12861 1-213): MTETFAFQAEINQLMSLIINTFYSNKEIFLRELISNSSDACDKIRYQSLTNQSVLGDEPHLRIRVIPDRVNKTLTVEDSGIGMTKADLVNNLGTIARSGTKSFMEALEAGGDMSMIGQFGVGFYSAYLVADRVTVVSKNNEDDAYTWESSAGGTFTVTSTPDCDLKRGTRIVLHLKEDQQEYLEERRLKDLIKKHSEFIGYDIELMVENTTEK
- METHOD_SUMMARY: biochemical
- Type: binding
- CONDITION_DESCRIPTION: ITC, 20°C, TbHsp83 NTD; read-out: K d
Report the value in nM with no unit label.

Here are 6 compounds together with their reported answers.
>  <TEST_SMILES>
CC1(C)CC(=O)c2c(C(F)(F)F)nn(-c3ccc(C(N)=O)c(N[C@H]4CC[C@H](O)CC4)c3)c2C1

>  <PROPERTY_MEASURED>
Kd

>  <TEST_VALUE>
3

$$$$
>  <TEST_SMILES>
CSCCNc1cc(-n2nc(C(F)(F)F)c3c2CC(C)(C)CC3=O)ccc1C(N)=O

>  <PROPERTY_MEASURED>
Kd

>  <TEST_VALUE>
794

$$$$
>  <TEST_SMILES>
CCc1cc(-c2n[nH]c(C)c2-c2ccc3c(c2)OCCO3)c(O)cc1O

>  <PROPERTY_MEASURED>
Kd

>  <TEST_VALUE>
4980

$$$$
>  <TEST_SMILES>
CO[C@H]1/C=C\C=C(/C)C(=O)NC2=CC(=O)C(NCCN3CCCC3)=C(C[C@@H](C)C[C@H](OC)[C@H](O)[C@@H](C)/C=C(\C)[C@@H]1OC(N)=O)C2=O

>  <PROPERTY_MEASURED>
Kd

>  <TEST_VALUE>
714

$$$$
>  <TEST_SMILES>
CCNC(=O)c1cc2c(-c3cc(OCCN(CC)CC)c(Cl)cc3Cl)nc(N)nc2s1

>  <PROPERTY_MEASURED>
Kd

>  <TEST_VALUE>
26

$$$$
>  <TEST_SMILES>
CCNC(=O)c1noc(-c2cc(C(C)C)c(O)cc2O)c1-c1ccc(CN2CCOCC2)cc1

>  <PROPERTY_MEASURED>
Kd

>  <TEST_VALUE>
3

$$$$

Consider now this further compound.
# compound `Oc1cc(O)c(-c2noc3ccc(NCCN4CCOCC4)cc23)cc1Cl` ; its Kd = 10
